Assayed System: mutEGFR (D770_N771insNPG, T790) (Homo sapiens, UniProt P00533, INS770NPG/T790M)
Construct: exact insNPG construct not described; in-house EGFR proteins were N-terminal GST fusions from baculovirus/insect cells (borders R669-A1210 given only for WT, insSVD, insASV)
Sequence (P00533 with tags, fused parts or gaps INS770NPG/T790M limits assumed): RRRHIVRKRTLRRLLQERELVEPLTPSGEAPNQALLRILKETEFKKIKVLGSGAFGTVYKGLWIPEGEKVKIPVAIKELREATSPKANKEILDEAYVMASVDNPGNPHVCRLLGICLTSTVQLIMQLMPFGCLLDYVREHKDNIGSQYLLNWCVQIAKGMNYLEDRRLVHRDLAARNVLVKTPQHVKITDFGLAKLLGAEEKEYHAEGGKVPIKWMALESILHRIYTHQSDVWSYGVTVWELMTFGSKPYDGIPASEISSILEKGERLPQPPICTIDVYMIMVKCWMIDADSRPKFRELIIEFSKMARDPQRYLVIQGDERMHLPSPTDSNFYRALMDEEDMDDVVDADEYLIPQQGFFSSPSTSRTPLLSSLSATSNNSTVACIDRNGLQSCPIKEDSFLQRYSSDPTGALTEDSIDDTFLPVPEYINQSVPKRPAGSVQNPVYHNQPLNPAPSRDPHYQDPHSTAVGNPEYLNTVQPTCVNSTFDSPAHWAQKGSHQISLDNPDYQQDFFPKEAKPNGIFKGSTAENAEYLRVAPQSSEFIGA
Assay Comment: mutEGFR (D770_N771insNPG, T790) kinase assay
Format: biochemical
Assay Context: Table 2a, D770_N771insNPG
// NB: equality with 6 nM counts as Condition not met; only IC50 strictly below is Condition met

Recorded results for 5 molecules are shown here.
>  <Molecule>
C=CC(=O)N1CCn2nc(-c3cccc(C)c3)c(-c3ccncc3)c2C1

>  <Group>
Condition met

$$$$
>  <Molecule>
C=CC(=O)N1CCn2nc(Nc3ccc(Cl)cc3F)c(-c3ccnc4[nH]cc(C)c34)c2C1

>  <Group>
Condition not met

$$$$
>  <Molecule>
C=CC(=O)N1CCn2nc(-c3ccc4occc4c3)c(-c3ccncc3)c2C1

>  <Group>
Condition met

$$$$
>  <Molecule>
C=CC(=O)N1CCn2nc(-c3ccccc3)c(-c3ccncc3)c2C1

>  <Group>
Condition met

$$$$
>  <Molecule>
C=CC(=O)N1CCn2nc(Nc3ccc(C(F)(F)F)cc3)c(-c3ccnc4[nH]cc(C)c34)c2C1

>  <Group>
Condition not met

$$$$

Q) IC50 under 6 nM? Item: "C=CC(=O)N1CCn2nc(-c3ccc(F)cc3)c(-c3ccncc3OC)c2C1"
A) Condition not met

Q) IC50 under 6 nM? Item: C=CC(=O)N1CCn2nc(-c3ccc(Cl)cc3F)c(-c3ccncc3)c2C1C (single isomer, unassigned; isomer 1) [Example 278]
A) Condition met

Q) IC50 under 6 nM? Item: "C=CC(=O)N1Cc2c(-c3ccncc3)c(-c3cccc(C#N)c3)nn2C[C@@H]1C"
A) Condition met

Q) IC50 under 6 nM? Item: "C=CC(=O)N1Cc2c(-c3ccncc3)c(-c3ccc(F)cc3)nn2CC1(C)C"
A) Condition not met

Q) IC50 under 6 nM? Item: CC1c2c(-c3ccnc4[nH]ccc34)c(-c3ccc(F)cc3)nn2CCN1C(=O)/C=C/CN(C)C (single isomer, unassigned; isomer 2) [Example 267]
A) Condition not met

Q) IC50 under 6 nM? Item: "CCc1ccc(-c2nn3c(c2-c2ccncc2)CN(C(=O)/C=C/CN(C)C)CC3)cc1"
A) Condition not met

Q) IC50 under 6 nM? Item: "C=CC(=O)N1CCn2nc(-c3ccc(C)cc3F)c(-c3ccncc3)c2C1"
A) Condition met

Q) IC50 under 6 nM? Item: C=CC(=O)N1Cc2c(-c3ccncc3)c(-c3ccc4cc(F)sc4c3)nn2CC1C (racemic)
A) Condition met

Q) IC50 under 6 nM? Item: "CN1CCN(C/C=C/C(=O)N2CCn3nc(-c4ccc(Cl)cc4)c(-c4ccncc4)c3C2)CC1"
A) Condition not met

Q) IC50 under 6 nM? Item: "Cc1c[nH]c2nccc(-c3c(-c4cccc(Cl)c4)nn4c3CN(C(=O)/C=C/CN(C)C)CC4)c12"
A) Condition not met

Q) IC50 under 6 nM? Item: CC(C)(C)OC(=O)N1CCCC1C#CC(=O)N1CCn2nc(-c3ccc(F)cc3)c(-c3ccncc3)c2C1 (racemic)
A) Condition not met

Q) IC50 under 6 nM? Item: CN(C)C/C=C/C(=O)N1Cc2c(-c3ccncc3)c(-c3ccc(F)cc3)nn2C(CC(N)=O)C1 (racemic)
A) Condition not met

Q) IC50 under 6 nM? Item: "CN(C)C/C=C/C(=O)N1CCn2nc(-c3ccc4sccc4c3)c(-c3ccncc3)c2C1"
A) Condition met

Q) IC50 under 6 nM? Item: "C=CC(=O)N1Cc2c(-c3ccncc3)c(-c3ccc(Cl)cc3F)nn2C[C@H]1C"
A) Condition met

Q) IC50 under 6 nM? Item: "CN(C)C/C=C/C(=O)N1CCn2nc(-c3ccc(SC(F)(F)F)cc3)c(-c3ccncc3)c2C1"
A) Condition not met

Q) IC50 under 6 nM? Item: C=CC(=O)N1CCn2nc(-c3ccc(C(F)(F)F)cc3)c(-c3ccnc4[nH]cc(C)c34)c2C1C (single isomer, unassigned; isomer 1)
A) Condition not met

Q) IC50 under 6 nM? Item: C=CC(=O)N1Cc2c(-c3ccncc3)c(-c3ccc(F)cc3)nn2C(C(=O)NC)C1 (single isomer, unassigned; isomer 1)
A) Condition not met

Q) IC50 under 6 nM? Item: "C#Cc1ccc(-c2nn3c(c2-c2ccncc2)CN(C(=O)/C=C/CN(C)C)CC3)cc1"
A) Condition not met
